Would you kindly list melting point for each of these compounds?

Retrieve melting point measured for CCCCOCCOc1ccc(-c2ccc3c(c2)C=C(C(=O)Nc2ccc(CN(C)C4CCOCC4)cc2)CCN3c2ccc(S(=O)(=O)N(C)C)cc2)cc1 [Compound 47] and print it.
94 to 98 °C

Retrieve melting point measured for CCOCCCOc1ccc(-c2ccc3c(c2)C=C(C(=O)Nc2ccc(CN(C)C4CCOCC4)cc2)CCN3C=O)cc1 [Compound 2] and print it.
166 to 169 °C

Retrieve melting point measured for CCCCOCCOc1ccc(-c2ccc3c(c2)C=C(C(=O)Nc2ccc(CN(C)C4CCOCC4)cc2)CCN3Cc2cc(OC)ccc2OC)cc1 [Compound 65] and print it.
143 to 144 °C

Retrieve melting point measured for CC#CCN1CCC(C(=O)Nc2ccc(CN(C)C3CCOCC3)cc2)=Cc2cc(-c3ccc(OCCOCCCC)cc3)ccc21 [Compound 95] and print it.
129 to 131 °C

Retrieve melting point measured for CCCCOCCOc1ccc(-c2ccc3c(c2)C=C(C(=O)Nc2ccc(CN(C)C4CCOCC4)cc2)CCN3Cc2ccc(OC)cc2)cc1 [Compound 56] and print it.
151 to 152 °C

Retrieve melting point measured for CCCOCCOc1ccc(-c2ccc3c(c2)C=C(C(=O)Nc2ccc(CN(C)C4CCOCC4)cc2)CCN3CCCOC)cc1 [Compound 103] and print it.
87 to 90 °C

Retrieve melting point measured for CCCCOCCOc1ccc(-c2ccc3c(c2)C=C(C(=O)Nc2ccc(CN(C)C4CCOCC4)cc2)CCN3c2cccc(OC)c2)cc1 [Compound 40] and print it.
94 to 97 °C
